Measured On: T1, human Y4 receptor (human, UniProt P0DQD5 1-375)
T1 construct: also called hp25a; hp25a receptor
Assay Info: 125I-PYY displacement, COS-7 membranes
Where no end group is shown, it is not given here.

{"columns": ["Binder", "Ki (nM)"],
 "data": [
  ["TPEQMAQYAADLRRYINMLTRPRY-NH2 (peptide, UniProt P01298 42-65, looked up, range 13-36) [PP13-36, human]", 39],
  ["FMRF-NH2 (Tetrapeptide invertebrate neurotransmitter; also called FMRF-amide; FMRFamide) [Phe-Met-Arg-Phe-Amide]", 4000],
  ["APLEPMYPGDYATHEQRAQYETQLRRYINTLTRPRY-NH2 (peptide, UniProt P06303 30-65, looked up, mature; also called rat PP) [PP, rat]", 0.18],
  ["APLEPVYPGDNATPEQMAQYAADLRRYINMITRQRY-NH2 (peptide, UniProt P01298 30-65, looked up, mature) [[Ile^31, Gln^34]PP, human]", 0.09],
  ["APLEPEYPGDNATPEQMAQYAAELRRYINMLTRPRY-NH2 (peptide, UniProt P01302 30-65, looked up, mature; also called bovine PP) [PP, bovine]", 0.05],
  ["LTRPRY-NH2 (peptide, UniProt P01298 60-65, looked up, range 60-65; also called human PP31-36) [PP31-36, human]", 350]
]}
